- test details: method code SF, from Hansch, C. & Leo, A. (1987). Log P database [Dataset]. Pomona College Medicinal Chemistry Project.
experimental endpoint: logP

record smiles	experimental endpoint	observed measurement
COc1ccc(NC(C)=O)cc1	logP	1.1
Nc1ccc2nc3ccccc3cc2c1	logP	2.62
CCCC(=O)Nc1ccccc1	logP	2.05
COC(=O)C(=Cc1ccccc1)C(=O)OC	logP	2.24
Cn1ncc2ccccc2c1=O	logP	0.61
O=S(=O)(N=[N+]([O-])c1ccccc1)c1ccccc1	logP	2.33
CC(=O)c1ccc[nH]1	logP	0.93
CN(C)c1cccc(C(N)=O)c1	logP	0.95
CN(C)/N=N/c1cccc(Cl)c1	logP	3.44
CCOC(=O)C(=Cc1ccc(Cl)cc1)C(C)=O	logP	3.04
CSc1cccc(/N=N/N(C)C)c1	logP	2.98
CC(=O)c1ccco1	logP	0.52
O=S1(=O)NC(c2ccccc2)=Nc2ccccc21	logP	1.78
C1OCOCO1	logP	-0.43
CN(C)/N=N/c1ccccc1C(=O)NCC#N	logP	1.79
C#CCO	logP	-0.38

* * *

- test details: method code SF, from Hansch, C. & Leo, A. (1987). Log P database [Dataset]. Pomona College Medicinal Chemistry Project.
Readings of logP for the listed compounds
experimental endpoint: logP

compound	observed measurement
CCOc1ccc(C(N)=O)cc1	1.3
CCc1cccs1	2.87
COc1ccc(-c2nc3cnccc3[nH]2)c(OC)c1	2.56
NC(=O)c1cccc(N)c1	-0.33
CCCCCCCCOC(=O)c1ccccc1C(=O)OCCCCCCCC	5.22
CC(=O)C(=Cc1ccc(F)cc1)C(C)=O	1.65
CCOC(=O)C(=Cc1ccccc1OC)C(C)=O	2.39
O=C1OC(O)c2ccccc21 (stereo not given)	0.57
C(=N\N1CCCCC1)/c1ccccc1	3.04
CN(C)C(=O)c1cccs1	0.75
CC1(C)Cc2cccc(O)c2O1	2.08
CSc1ccccc1NC(C)=O	1.53
O=C(CNC(=O)c1ccccc1)Oc1cccc([N+](=O)[O-])c1	2.46
COc1ccc2c(=O)c(C)c(C(C)C)oc2c1	3.39
CC(C)c1ccccc1OCC(=O)O	2.84

* * *

- test details: method code SF, from Hansch, C. & Leo, A. (1987). Log P database [Dataset]. Pomona College Medicinal Chemistry Project.
- measurement conditions: pH 4.6

record smiles	logD
CCN(CC)/N=N/c1nc[nH]c1C(N)=O	0.78

* * *

Quick list: logD per entry.
- test details: method code SF, from Hansch, C. & Leo, A. (1987). Log P database [Dataset]. Pomona College Medicinal Chemistry Project.
- measurement conditions: pH 7.4

record smiles	logD
Cc1c(N(C)C)c(=O)[nH]c(=O)n1-c1ccccc1	1.4
Nc1ccc(C(F)(F)F)cc1	2.39
CO/N=C/CCc1ccccc1	2.14
COc1cc2c(c(OC)c1OC)-c1ccc(SC)c(=O)cc1[C@@H](N[C@@H]1O[C@H](CO)[C@@H](O)[C@H](O)[C@H]1O)CC2	1.25
O=C1C=C(O)CCN1[C@@H]1O[C@H](CO)[C@@H](O)[C@H]1O	-2.28
CN(C)/N=N/c1ccccc1C(N)=O	1.73

* * *

- test details: method code SF, from Hansch, C. & Leo, A. (1987). Log P database [Dataset]. Pomona College Medicinal Chemistry Project.
- measurement conditions: pH 7.4
experimental endpoint: logD

molecule	observed measurement
CC(C)COCC1CNc2nc(N)[nH]c(=O)c2N1 (centres undefined)	0.45
Cc1c(N2CCCC2)c(=O)n(-c2ccccc2)c(=O)n1C	2.26
CCCNc1c(C)n(C)c(=O)n(-c2ccccc2)c1=O	1.2
Cc1c(N(C)C)c(=O)n(C)c(=O)n1C	0.99
CC(=O)NN=CCCc1ccccc1	1.8
CCCCNc1c(C)n(C)c(=O)n(-c2ccccc2)c1=O	1.69
CCN(CC)c1c(C)n(-c2ccccc2)c(=O)n(CC)c1=O	2.78
Sc1ncnc2nc[nH]c12	0.01
COC1OCC(O)C(NC(=O)N(C)N=O)C1O (centres undefined)	-1.08
CN(C)/N=C/CCc1ccccc1	2.05
CN(C)/N=N/c1ccccc1Cl	3.03
Cc1c(N2CCCCC2)c(=O)n(-c2ccccc2)c(=O)n1C	2.76
O=NN(CCCl)C(=O)N[C@@H]1[C@@H](O)[C@H](O)[C@@H](CO)O[C@H]1O	-1.02
N=c1ccccn1O	-0.87
Nc1nc(S)c2ncn(C3CC(O)C(CO)O3)c2n1 (centres undefined)	-0.56
CNN=CCCc1ccccc1	1
CO[C@H]1O[C@H](CNC(=O)N(C)N=O)[C@@H](O)[C@H](O)[C@H]1O	-1.57
O=C(CCCN1CCC(n2c(=O)[nH]c3ccccc32)CC1)c1ccc(F)cc1	3.91
C=CCn1c(=O)c(N(C)C)c(C)n(-c2ccccc2)c1=O	1.98
COc1ccc2c(c1O)-c1cccc3c1C(C2)N(CCO)CC3 (centres undefined)	2.43
Cc1c(N2CCOCC2)c(=O)n(C)c(=O)n1C1CCCCC1	2.39
CCN(CC)c1c(C)n(C)c(=O)n(-c2ccccc2)c1=O	2.11
CCn1c(=O)c(N(C)C)c(C)n(-c2ccccc2)c1=O	2.29
NC(=O)c1ncccc1O	0.65

* * *

- test details: method code SF, from Hansch, C. & Leo, A. (1987). Log P database [Dataset]. Pomona College Medicinal Chemistry Project.
Rule: measured logP below 2 gets Condition met; anything equal to or greater than 2 gets Condition not met.

compound	answer label
CNC(C)=O	Condition met
O=[N+]([O-])c1ccc2[nH]ccc2c1	Condition not met
CN(C)c1cnccn1	Condition met
O=C(Nc1ccccc1)C(F)(F)F	Condition not met
CCCCCc1cn[nH]c1	Condition not met
NC(=S)c1ccccc1	Condition met
CC(=O)Nc1ccc(Cl)c(Cl)c1	Condition not met
O=c1[nH]cc(C(F)(F)F)c(=O)[nH]1	Condition met
CCOP(=S)(Oc1ccc(C#N)cc1)c1ccccc1 (configuration not stated)	Condition not met
O=C(NN=Cc1ccccc1)c1ccccc1	Condition not met
CNC(=O)Oc1cc(C)c(Cl)cc1Cl	Condition not met
N#CN=[N+]([O-])c1cccc(Br)c1	Condition not met
CCC(C)NC(=O)/C(Cl)=C\c1ccccc1 (configuration not stated)	Condition not met
CC1CCCN(N=O)C1=O (configuration not stated)	Condition met
CC(=O)Oc1ccccc1Br	Condition not met
Clc1ccc2[nH]c(CCc3nc4cc(Cl)ccc4[nH]3)nc2c1	Condition met
CCOCCOC(=O)C(C#N)=C(CC)NCc1ccc([N+](=O)[O-])cc1	Condition not met
Cc1nnc(SCc2ccccc2)o1	Condition met
N#CN=[N+]([O-])c1ccc(F)cc1	Condition met
Cc1cc(CSc2ccccc2C(C)C)c(O)c(C(=O)O)c1	Condition not met
ClC(Cl)=C(Cl)Cl	Condition not met
O=S1(=O)NC(C(F)(F)F)=Nc2cc(Cl)ccc21	Condition met

* * *

- test details: method code SF, from Hansch, C. & Leo, A. (1987). Log P database [Dataset]. Pomona College Medicinal Chemistry Project.
experimental endpoint: logP

compound	observed measurement
CCC(C)NC(=O)C=Cc1ccc(Cl)cc1 (stereo unspecified)	3.37
O=C1Cc2ccccc2CCc2ccccc21	2.58
CCOC(=O)CON=Cc1ccc(OCCOC(=O)c2ccccc2OC)c(OC)c1	3.27
CCC(C)NC(=O)C=C(Cl)c1ccc(Cl)cc1 (stereo unspecified)	3.61
CC(=O)Nc1ccc(C(C)(C)C)cc1	3.05
CCOC(=O)C(O)c1ccccc1 (stereo unspecified)	1.53
COc1ccc(C(=O)N(C)C)cc1	0.96
O=[N+]([O-])c1cn[nH]c1	0.59
CCOC(=O)C(=Cc1ccccc1Cl)C(=O)OCC	3.15
O=S1(=O)Nc2ccccc2N1	1.12
COCCC(=O)N(C)c1ccc(S(=O)(=O)N(C)C)cc1	0.33
NS(=O)(=O)c1cccc(OC(=O)CNC(=O)c2ccccc2)c1	0.84
CCCCC(=O)Nc1ccccc1	2.61
CCCCCC(=O)Nc1ccccc1	3.28
CCCCOc1ccc(C(N)=O)cc1	2.48
CON(C)C(=O)Nc1cccc(C#N)c1	1.33
CCN(CC)C(=O)[C@@H]1C=C2c3cccc4[nH]cc(c34)C[C@H]2N(C)C1	2.95
CC(F)F	0.75
CON(C)C(=O)Nc1cccc(OCc2ccccc2)c1	3.11
CNC(=O)COc1ccccc1	1.02
COC(=O)C[C@](O)(CCC(C)(C)O)C(=O)O[C@@H]1C(OC)=C[C@]23CCCN2CCc2cc4c(cc2[C@H]13)OCO4	0.65
c1cn[nH]n1	-0.29
CCC(=O)Nc1ccccc1	1.61
CN(C)CCc1ccsc1	1.94
COc1ccc(C(C)=O)c(N)c1	1.76
O=S(=O)(Nc1ccccc1)c1ccccc1	2.58
CC(=O)Nc1ccccc1[N+](=O)[O-]	1.05
N#C/C=C/c1ccccc1	1.96
FC(F)OC(Cl)C(F)(F)F (stereo unspecified)	2.06
COc1cc(C=NO)ccc1OCCOC(=O)c1cccc(Cl)c1	3.94
COc1ccc2[nH]c(C(O)C(O)c3nc4cc(OC)ccc4[nH]3)nc2c1 (stereo unspecified)	1.05
COc1cc2c(c3c1c(=O)c1ccccc1n3C)C=CC(C)(C)O2	3.67
CCCCNC	1.33
O=C(O)CCS	0.43
COC(=O)Cc1cccs1	1.51
FC(F)Oc1ccccc1	2.41
O=[N+]([O-])c1ccc(C=Cc2nccs2)o1	1.97
CCOC(=O)c1ccccc1N	2.57
c1ccc(-c2ccc3ccccc3n2)cc1	3.9
Clc1ccc2ncccc2c1	2.73
Nc1cc(OCC(=O)O)ccc1Cl	1.16
COc1ccc([N+]([O-])=NC#N)cc1	2.15
COc1cc(S(C)=O)ccc1-c1cn2ccncc2n1 (stereo unspecified)	1.11
N#CC(=Cc1ccccc1)C(=O)Nc1ccccc1	3.41
CC(=O)C(C)=O	-1.34
CN(C)/N=N/c1ccc(C#N)cc1	2.35
N#CN=[N+]([O-])c1ccc(Br)cc1	2.5
O=C(O)CCl	0.22
CC1=NCCN1	0.52
CN(C=O)c1ccccc1	1.09
NC(=O)C(Cl)(Cl)Cl	1.04
CC(=O)c1ccc2ncccc2c1	1.58
O=S(=O)(Cc1ccccc1)c1ccccc1	2.05
CCOCOCC	0.84
CCOP(=S)(OCC)N1C(=O)c2ccccc2C1=O	3.48
COc1cc(OC)cc(OC(=O)CNC(=O)c2ccccc2)c1	2.69
